Biological target: Bd1971 (Bdellovibrio bacteriovorus)
Construct: ITC: Bd1971ΔEAL (residues 1–150); crystal: full-length
Sequence (Q6MLN6 entry or part of it): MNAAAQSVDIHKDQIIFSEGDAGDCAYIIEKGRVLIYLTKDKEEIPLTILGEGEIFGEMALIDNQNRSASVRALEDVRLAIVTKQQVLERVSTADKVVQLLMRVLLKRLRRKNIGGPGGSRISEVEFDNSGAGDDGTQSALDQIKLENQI
Assay: ITC (two-site model) and co-crystal structure; also activates phosphodiesterase activity (K half […])
reported endpoint: Kd (nM)
# value in nM; strip the unit string

Bd1971 (Bdellovibrio bacteriovorus) Kd of Nc1nc2c(ncn2[C@@H]2O[C@@H]3COP(=O)(O)O[C@H]3[C@H]2O)c(=O)[nH]1 is 769
